Where do the numbers come from? From paper PMC9881875.

tgt: MAGI1 PDZ2 (MAGI1–2) (Homo sapiens)
Sequence (Q96QZ7 471-554): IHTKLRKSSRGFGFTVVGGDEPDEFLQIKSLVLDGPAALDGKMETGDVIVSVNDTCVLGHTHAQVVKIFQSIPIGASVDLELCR
assay.procedure: Fluorescence polarization competition
Type: binding
Residues, ends and D or L forms follow the SMILES beside them.
parameter.measured: pIC50
# pIC50: negative log10 of molar concentration; output just the value

[
  {
    "molecule": "CC(C)C[C@H](NC(=O)[C@H](CCC(N)=O)NC(=O)[C@@H](NC(=O)[C@H](CCC(=O)O)NC(=O)[C@H](CCCNC(=N)N)NC(=O)[C@@H](NC(=O)[C@@H](NC(=O)[C@H](CCCNC(=N)N)NC(=O)[C@H](CO)NC(=O)[C@@H](N)CO)[C@@H](C)O)C(C)C)[C@@H](C)O)C(=O)O [HPVP5V] (H-SSRTVRETQL-OH)",
    "pIC50": 5.36
  },
  {
    "molecule": "CC(C)C[C@H](NC(=O)[C@H](CCCNC(=N)N)NC(=O)[C@@H](NC(=O)[C@H](CC(=O)O)NC(=O)[C@H](CCC(N)=O)NC(=O)[C@H](CCCNC(=N)N)NC(=O)[C@@H](NC(=O)[C@H](CCCNC(=N)N)NC(=O)[C@H](CO)NC(=O)[C@@H](N)CO)[C@@H](C)O)[C@@H](C)O)C(=O)O [CFTRP5R] (H-SSRTRQDTRL-OH)",
    "pIC50": 3.66
  }
]

# ---- query molecule ----
Memo: `CC(C)C[C@H](NC(=O)[C@H](CCC(N)=O)NC(=O)[C@@H](NC(=O)[C@H](CCC(=O)O)NC(=O)[C@H](CCCNC(=N)N)NC(=O)[C@H](CCCNC(=N)N)NC(=O)[C@@H](NC(=O)[C@H](CCCNC(=N)N)NC(=O)[C@H](CO)NC(=O)[C@@H](N)CO)[C@@H](C)O)[C@@H](C)O)C(=O)O` , reported pIC50: 5.43
